- STUDY TARGET: UniProt Q8IM01
- EXPERIMENTAL PROTOCOL: IC50 for competition of protein binding to Kinobeads;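 note: native unpurified kinases from lysate captured on beads bearing immobilized kinase inhibitors, with bead-bound kinases quantified by mass spectrometry across compound doses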
- MEASUREMENT SETUP: assay detail: Kinobeads competition in P. falciparum blood-stage lysate
PARAMETER: IC50

> print(dat)
                                   compound      val
1  O=c1[nH]c2ccc(Cl)cc2c(NC2CN3CCC2CC3)c1-c1nc2ccccc2[nH]1 (stereo unspecified)  > 20 µM

---

- STUDY TARGET: UniProt C6KSZ6
- EXPERIMENTAL PROTOCOL: IC50 for competition of protein binding to Kinobeads
- MEASUREMENT SETUP: assay detail: Kinobeads competition in P. falciparum blood-stage lysate
pIC50: −log10 of the molar value.
PARAMETER: pIC50

> print(dat)
                                   compound  parameter   val
1  O=c1[nH]c2ccc(Cl)cc2c(NC2CN3CCC2CC3)c1-c1nc2ccccc2[nH]1 (stereo unspecified)      pIC50  5.65

Data origin, for the record: the supplement of paper PMC13386468
